molecular target: T1, MB peptide complexed with HLA-A*02:01 on T2 cells (human); experiment: flow cytometry, peptide-loaded T2 cells;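 further: binding of single-chain Fv antibody constructs, raised in XenoMouse, to peptide-pulsed T2 cells measured by flow cytometry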
T1 construct: whole, on cells
Hi there, I'd appreciate the recorded Signal/background for every entry that follows.

Q. # get_value(readout='Signal/background', item= 18181-F3 (scFv, scFv in bacterial lysate, detected with anti-Flag M2) scFv: EVQLLESGGGLVQPGGSLRLSCAASGFTFSNAWMSWVRQAPGKGLEWVGRIKGNTYGGTTDYAAPVKGRFTISRDDSKNTLFLQMNSLKTEDTAVYYCTTPSYSGSYYNYFSVMDVWGQGTTVTVSSGGGGSGGGGSGGGGSELVMTQSPSSLSASVGDRVTITCRTSQSISSYLNWYQQKPGRAPKLLIFAASSLQGGVPSRFSGSGSGTDFTLTISSLQPEDFATYYCQQSYSSPFTFGPGTKVEIK )
A. 0.9

Q. What do you have for 18182-G8 (scFv, scFv in bacterial lysate, detected with anti-Flag M2) scFv: EVQLLESGGGLVKPGGSLRLSCAASGFTFSSYAMNWVRQAPGKGLEWVSAISGSGGGTYYADSGKGRFTISRDNSKNTLYLQMNSLRAEDTAVYYCATGKGVHLNFDYWGQGTLVTVSSGGGGSGGGGSGGGGSELVLTQPPSVSVAPGQTARITCGGNNIGSKSVHWYQQKPGQAPVMVVYDDNDRPSGIPERFSGSNSGNTATLTISRVEAGDEADYYCQVWDSSSDHVVFGGGTKLTVL ?
A. 1.1
